pIC50: −log10 of the molar value.
pIC50 tested on LRRK2 kinase (Homo sapiens): recorded values
Sequence (Q5S007 with tags, fused parts or gaps): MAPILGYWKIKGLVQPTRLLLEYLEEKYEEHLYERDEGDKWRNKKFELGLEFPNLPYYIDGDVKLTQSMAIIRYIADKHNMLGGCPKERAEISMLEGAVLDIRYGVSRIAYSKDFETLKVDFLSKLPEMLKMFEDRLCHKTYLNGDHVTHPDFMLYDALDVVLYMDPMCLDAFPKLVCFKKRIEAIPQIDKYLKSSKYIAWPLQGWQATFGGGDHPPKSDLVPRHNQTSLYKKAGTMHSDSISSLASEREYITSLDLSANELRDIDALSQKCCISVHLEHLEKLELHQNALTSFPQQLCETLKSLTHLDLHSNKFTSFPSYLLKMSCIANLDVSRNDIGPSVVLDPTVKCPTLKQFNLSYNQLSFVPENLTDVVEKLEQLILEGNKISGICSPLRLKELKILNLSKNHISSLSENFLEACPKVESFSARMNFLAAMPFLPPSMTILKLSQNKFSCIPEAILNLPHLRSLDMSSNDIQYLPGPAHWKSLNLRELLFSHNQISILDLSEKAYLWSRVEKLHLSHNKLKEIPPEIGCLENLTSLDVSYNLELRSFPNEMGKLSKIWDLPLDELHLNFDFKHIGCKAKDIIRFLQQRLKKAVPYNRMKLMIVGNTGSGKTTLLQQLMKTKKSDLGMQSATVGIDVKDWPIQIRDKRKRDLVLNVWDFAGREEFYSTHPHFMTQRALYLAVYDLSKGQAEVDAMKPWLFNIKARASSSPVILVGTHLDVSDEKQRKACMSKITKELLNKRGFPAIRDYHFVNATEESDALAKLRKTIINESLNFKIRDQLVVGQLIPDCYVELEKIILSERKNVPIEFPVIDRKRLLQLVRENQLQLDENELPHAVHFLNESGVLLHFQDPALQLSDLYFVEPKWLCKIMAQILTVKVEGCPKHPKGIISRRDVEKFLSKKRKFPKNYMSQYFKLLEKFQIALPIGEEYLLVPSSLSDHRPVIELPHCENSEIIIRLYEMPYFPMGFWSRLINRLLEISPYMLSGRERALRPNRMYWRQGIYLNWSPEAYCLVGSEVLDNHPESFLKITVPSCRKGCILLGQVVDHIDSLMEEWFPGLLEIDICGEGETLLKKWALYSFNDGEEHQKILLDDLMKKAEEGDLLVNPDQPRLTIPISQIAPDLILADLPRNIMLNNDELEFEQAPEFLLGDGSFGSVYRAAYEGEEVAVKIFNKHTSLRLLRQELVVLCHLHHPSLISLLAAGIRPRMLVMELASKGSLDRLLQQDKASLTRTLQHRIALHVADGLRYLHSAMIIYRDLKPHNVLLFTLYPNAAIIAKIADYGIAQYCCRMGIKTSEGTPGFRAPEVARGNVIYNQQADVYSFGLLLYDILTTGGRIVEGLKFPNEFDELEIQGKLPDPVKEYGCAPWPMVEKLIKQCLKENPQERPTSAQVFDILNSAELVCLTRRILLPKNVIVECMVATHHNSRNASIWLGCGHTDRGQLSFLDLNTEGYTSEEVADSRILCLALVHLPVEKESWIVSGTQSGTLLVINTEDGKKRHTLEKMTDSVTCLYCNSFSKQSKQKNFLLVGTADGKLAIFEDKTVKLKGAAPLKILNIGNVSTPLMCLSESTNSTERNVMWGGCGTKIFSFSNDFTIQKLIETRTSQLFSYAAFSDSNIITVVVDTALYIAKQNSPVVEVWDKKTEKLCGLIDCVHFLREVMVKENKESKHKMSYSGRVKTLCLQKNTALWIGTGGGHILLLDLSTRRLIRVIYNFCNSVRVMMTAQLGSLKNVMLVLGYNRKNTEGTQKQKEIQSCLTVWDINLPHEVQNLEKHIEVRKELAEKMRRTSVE

chemicalString: CN1CCC(n2cc(Nc3ncc(C4CC4)c(NCCCN4CCCC4=O)n3)cn2)CC1
pIC50: < 6.22

chemicalString: Cc1nn(C2CN(CC(C)C)C2)cc1Nc1ncc(C(F)(F)F)c(NCCCN2CCCCC2=O)n1
pIC50: < 6.22

chemicalString: Cc1nn(C2CCN(C)CC2)cc1Nc1ncc(C2CC2)c(NCCCN2CCOCCC2=O)n1
pIC50: < 6.22

chemicalString: Cc1nn(C2CCN(C)CC2)cc1Nc1ncc(Cl)c(NCCCN2CCCCCC2=O)n1
pIC50: 6.52 to 7.00

chemicalString: Cc1nn(C2CCN(C(C)C)CC2)cc1Nc1ncc(C2CC2)c(NCCCN2CCCOCC2=O)n1
pIC50: < 6.22

Return reported pIC50. Input compound: CCN1CC[C@H](n2cc(Nc3ncc(Br)c(NCCCN4CCCCC4=O)n3)c(C)n2)C1
6.22 to 6.52

Return reported pIC50. Input compound: Cc1nn(C2CCN(C)CC2)cc1Nc1ncc(Cl)c(NCCCN2CCOCCC2=O)n1
< 6.22

Return reported pIC50. Input compound: Cc1nn(C2CCN(C)CC2)cc1Nc1ncc(C2CC2)c(NCCCN2CCCOCC2=O)n1
< 6.22

Return reported pIC50. Input compound: Cc1nn([C@@H]2CCNC2)cc1Nc1ncc(Br)c(NCCCN2CCCC2=O)n1
6.22 to 6.52

Return reported pIC50. Input compound: C[C@@H](CCNc1nc(Nc2cnn(C3CCN(C)CC3)c2)ncc1Cl)N1CCCC1=O
< 6.22

Return reported pIC50. Input compound: Cc1nn(CCN(C)C)cc1Nc1ncc(Br)c(NCCCN2CCCOCC2=O)n1
6.52 to 7.00

Return reported pIC50. Input compound: Cc1nn(C2CCN(C)CC2)cc1Nc1ncc(C(F)(F)F)c(NCCCN2CCCC2=O)n1
6.22 to 6.52

Return reported pIC50. Input compound: Cc1nn(CCCN2CCOCC2)cc1Nc1ncc(C2CC2)c(NCCCN2CCOCCC2=O)n1
< 6.22
